assay-remarks: Cmax in Sprague-Dawley rat at 10 mg/kg, po measured upto 24 hrs by LC-MS/MS analysis
Format: ADME, organism-based
Parameters: dose 10 mg/kg, time < 24 hrs, route po
study-conditions: in vivo
value-type: Cmax

# compound `Cc1cn(-c2cc(NC(=O)c3cc4cc(c3C)C#Cc3cnc5ccc(nn35)N(C)CCNC(=O)CCCCO4)cc(C(F)(F)F)c2)cn1` ; its Cmax = 19.1 ng/mL

----------
Tested on: BaF3
assay-remarks: Antiproliferative activity against mouse BaF3 cells expressing ETV6 fused TRKC G696C mutant incubated for 3 days by CCK8 assay
study-conditions: BaF3, 72 h
value-type: IC50 (nM)
Answers are plain numbers, in nM.

molecule	IC50 / nM
O=C(Nc1cnn2ccc(N3CCC[C@@H]3c3cc(F)ccc3F)nc12)N1CC[C@H](O)C1 [LAROTRECTINIB]	332

Kindly review the next molecule as well.
# molecule C[C@@H]1CCc2ncc(F)cc2[C@H]2CCCN2c2ccn3ncc(c3n2)C(=O)N1 [SELITRECTINIB] ; its IC50 = 28.2
